Target: CRAC channels (Homo sapiens (Human), UniProt Q96D31)
Sequence (Q96D31 whole entry): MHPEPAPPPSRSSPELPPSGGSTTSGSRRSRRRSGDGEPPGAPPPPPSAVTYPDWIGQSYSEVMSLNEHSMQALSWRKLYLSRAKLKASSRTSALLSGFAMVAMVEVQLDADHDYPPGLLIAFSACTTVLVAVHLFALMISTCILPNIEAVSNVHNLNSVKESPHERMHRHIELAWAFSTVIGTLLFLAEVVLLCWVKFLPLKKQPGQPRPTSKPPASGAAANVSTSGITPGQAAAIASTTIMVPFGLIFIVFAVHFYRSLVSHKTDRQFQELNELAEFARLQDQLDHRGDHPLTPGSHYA
Test: In-vitro CRAC channel inhibition assay in Jurkat cells (thapsigargin-induced calcium influx)
Assay type: cell-based
Counter-ions that a name gives are not always drawn.
Hi there, I'd appreciate the recorded inhibition at 1 µM for every entry that follows.
Respond with the bare value in %.

Recorded result, `O=C(Nc1ccc(-n2nc(C(F)(F)F)cc2C2CC2)c(F)c1)c1cccc(F)c1F` , inhibition at 1 µM: 91.6

Recorded result, `O=S(=O)(Nc1ccc(-n2nc(C3CC3)cc2C2CC2)cc1)c1ccccc1` , inhibition at 1 µM: 91.2

Recorded result, `CSc1ccc(Cl)c(C(=O)Nc2ccc(-n3nc(C4CC4)cc3C3CC3)cc2)c1` , inhibition at 1 µM: 90.8

Recorded result, `Cc1ncncc1C(=O)Nc1ccc(-n2nc(C3CC3)cc2C2CC2)c(F)c1` , inhibition at 1 µM: 68.2

Recorded result, Cc1ncncc1C(=O)Nc1ccc(-n2nc(C3CC3)cc2C2CC2)nc1 [Example 51, hydrochloride] , inhibition at 1 µM: 0

Recorded result, O=C(Cc1cccnc1)Nc1ccc(-n2nc(C(F)(F)F)cc2C2CC2)cc1 [Example 72, hydrochloride] , inhibition at 1 µM: 100

Recorded result, `O=C(Cc1ccc(F)cc1)Nc1ccc(-n2nc(C(F)(F)F)cc2C2CC2)cc1` , inhibition at 1 µM: 68.9

Recorded result, `Cc1ncsc1C(=O)Nc1ccc(-n2nc(C(F)(F)F)c(Cl)c2C2CC2)nc1` , inhibition at 1 µM: 31
